This collection of values is drawn from PubChem BioAssay AID1963873.

Kindly supply the reported viability, T/C values for the records listed here.
test system: 276233-004-R-J1-PDC KRAS spheroids with HUVEC/MSC, viability; test: Anticancer human tumor 276233-004-R-J1-PDC patient-derived colon adenocarcinoma cell line growth inhibition [KRAS2]; details: second compound 0.1 µM; first compound 0.00316 µM; active compounds read low;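 further: cells exposed to agents for seven days before viability read; 100% = DMSO vehicle control wells and lower values mean fewer viable cells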

q: I would be grateful if you could share the reported viability, T/C for CCN1CCN(Cc2ccc(Nc3ncc(F)c(-c4cc(F)c5nc(C)n(C(C)C)c5c4)n3)nc2)CC1 + CC1OCC2(CCN(c3cnc(Sc4ccnc(N)c4Cl)c(N)n3)CC2)C1N .
a: 89.9%

q: Give the measured viability, T/C of CC(C)n1nc(-c2ccc3oc(N)nc3c2)c2c(N)ncnc21 + C=CC(=O)N1CCN(c2nc(OCC3CCCN3C)nc3c2CCN(c2cccc4cccc(C)c24)C3)CC1CC#N .
a: 80.9%

q: Data request, read-out viability, T/C, for CC(=O)Nc1cccc(-n2c(=O)n(C3CC3)c(=O)c3c(Nc4ccc(I)cc4F)n(C)c(=O)c(C)c32)c1 + CNCc1ccccc1-c1csc(C(C)Nc2nc(C)nc3cc(OC)c(OC)cc23)c1
a: 59.2%

q: Form field: reported viability, T/C of CCN1CCN(Cc2ccc(Nc3ncc(F)c(-c4cc(F)c5nc(C)n(C(C)C)c5c4)n3)nc2)CC1 + C=CC(=O)N1CCN(c2nc(OCC3CCCN3C)nc3c2CCN(c2cccc4cccc(C)c24)C3)CC1CC#N
a: 109%

q: Quick check: viability, T/C of CC(C)n1nc(-c2ccc3oc(N)nc3c2)c2c(N)ncnc21 + CC1OCC2(CCN(c3cnc(Sc4ccnc(N)c4Cl)c(N)n3)CC2)C1N ?
a: 71.9%

q: For the compound Cn1ncnc1[C@H]1c2n[nH]c(=O)c3cc(F)cc(c23)N[C@@H]1c1ccc(F)cc1 + COc1cc2nc(C)nc(NC(C)c3cc(N)cc(C(F)(F)F)c3)c2cc1OC1CCOC1 , what viability, T/C is on record?
a: 76.2%
